melting point values by entry
TEST_PARAMETERS: a range is the spread between reports

COMPOUND: O=C(O)c1c(Cl)cccc1Cl
melting point: 143 to 144 °C
//
COMPOUND: O=C(O)CCCCCCCCCCC(=O)O
melting point: 128 to 129 °C
//
COMPOUND: O=Cc1cccc(C(=O)O)c1
melting point: 174 to 175 °C
//
COMPOUND: Clc1sc(Cl)c(Cl)c1Cl
melting point: 28 to 30.5 °C
//
COMPOUND: CCCCCC(=O)O
melting point: -4 to -1.9 °C
//
COMPOUND: CCOC(=O)C(=O)OCC
melting point: -41 to -40 °C
//
COMPOUND: CN=C=S
melting point: 32 to 36 °C
//
COMPOUND: O=[N+]([O-])c1cc(Cl)c(Cl)c(Cl)c1
melting point: 70 to 72.5 °C

I am curious: what melting point value has been reported for FC(C(F)(F)F)C(F)(F)F ?
-131 to -127 °C

// same read-out, input: Clc1ccccc1I
0.7 to 1 °C

// same read-out, input: Cc1nnc(N)s1
224 to 225 °C

// same read-out, input: CCCCCCCCO
-16 to -15 °C

// same read-out, input: CC1CCCC1(C)C (centres undefined)
-22 to -21.6 °C

// same read-out, input: O=C(c1ccccc1)c1c(F)c(F)c(F)c(F)c1F
37 to 38 °C

// same read-out, input: CCCCCCCCCCCCCCCCCCC
32 to 33 °C

// same read-out, input: Cc1cccc(C)c1I
11 to 11.2 °C

// same read-out, input: CC(=O)Nc1cccc(C(F)(F)F)c1
104 to 105 °C
